System: 889142-216-R-J1-PDC complex spheroid viability
protocolText: Anticancer human tumor 889142-216-R-J1-PDC patient-derived bladder carcinoma cell line growth inhibition [POLQ]
conditionDescription: second compound 10 µM; first compound 0.316 µM; active compounds read low
TRUE if viability, T/C is below 70%. FALSE if not; exact matches included in FALSE.

[
  {
    "compound": "COc1cccc2c1C(=O)c1c(O)c3c(c(O)c1C2=O)CC(O)(C(=O)CO)CC3OC1CC(N)C(O)C(C)O1 (stereo not given) + Nc1ccc(C#CCN(C(=O)Cc2ncc(C(F)(F)F)cc2C(F)(F)F)c2ccc(F)cc2)nn1",
    "categoryLabel": "TRUE"
  }
]

Prompt line: Strictly below 70%: is that where viability, T/C of CCCS(=O)(=O)Nc1ccc(F)c(C(=O)c2c[nH]c3ncc(-c4ccc(Cl)cc4)cc23)c1F + COC1C(OC(N)=O)C(O)C(Oc2ccc3c(O)c(NC(=O)c4ccc(O)c(CC=C(C)C)c4)c(=O)oc3c2C)OC1(C)C sits?
Response line: FALSE

Prompt line: API: query returns whether the compound falls strictly under 70% in viability, T/C. Query: C=CCn1c(=O)c2cnc(Nc3ccc(N4CCN(C)CC4)cc3)nc2n1-c1cccc(C(C)(C)O)n1 + Nc1ccc(C#CCN(C(=O)Cc2ncc(C(F)(F)F)cc2C(F)(F)F)c2ccc(F)cc2)nn1
Response line: TRUE

Prompt line: Strictly below 70% in viability, T/C? O=c1[nH]cc(F)c(=O)[nH]1 + COC1C(OC(N)=O)C(O)C(Oc2ccc3c(O)c(NC(=O)c4ccc(O)c(CC=C(C)C)c4)c(=O)oc3c2C)OC1(C)C
Response line: FALSE

====

Tested on: 889142-216-R-J1-PDC complex spheroid viability
protocolText: Anticancer human tumor 889142-216-R-J1-PDC cell line growth inhibition [POLQ];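 also: spheroids exposed to compounds for seven days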
conditionDescription: second compound 3.16 µM; first compound 10 µM; active compounds read low
Entries whose viability, T/C is below 50% take criterion met; entries at or above 50% take criterion not met.

Worked examples follow.
[
  {
    "molecule": "COc1cccc2c1C(=O)c1c(O)c3c(c(O)c1C2=O)CC(O)(C(=O)CO)CC3OC1CC(N)C(O)C(C)O1 (stereo not given) + Cc1cccc(N(C)C(=O)C2C(O)CCN2c2nc(C)cc(C(F)(F)F)c2C#N)c1",
    "categoryLabel": "criterion met"
  },
  {
    "molecule": "CC(C)n1c(=O)n(C)c2cnc3cc(F)c(-c4ccc(OCCCN5CCCCC5)nc4)cc3c21 + COC1C(OC(N)=O)C(O)C(Oc2ccc3c(O)c(NC(=O)c4ccc(O)c(CC=C(C)C)c4)c(=O)oc3c2C)OC1(C)C",
    "categoryLabel": "criterion met"
  }
]

Prompt line: Dear reviewer, please state whether CC(C)n1c(=O)n(C)c2cnc3cc(F)c(-c4ccc(OCCCN5CCCCC5)nc4)cc3c21 + Nc1ccc(C#CCN(C(=O)Cc2ncc(C(F)(F)F)cc2C(F)(F)F)c2ccc(F)cc2)nn1 has viability, T/C strictly beneath 50%.
Response line: criterion not met

Prompt line: Would you kindly verify if viability, T/C of C#Cc1c(F)ccc2cc(O)cc(-c3ncc4c(N5CC6CCC(C5)N6)nc(OCC56CCCN5CC(F)C6)nc4c3F)c12 (stereo not given) + Nc1ccc(C#CCN(C(=O)Cc2ncc(C(F)(F)F)cc2C(F)(F)F)c2ccc(F)cc2)nn1 is strictly less than 50%?
Response line: criterion not met

Prompt line: Quick check: viability, T/C of Nc1ccn(C2OC(CO)C(O)C2(F)F)c(=O)n1 (stereo not given) + Cc1cccc(N(C)C(=O)C2C(O)CCN2c2nc(C)cc(C(F)(F)F)c2C#N)c1 under 50%?
Response line: criterion met

Cited source: PubChem BioAssay AID1963831
